Target: T1, fasCD40-His (Cynomolgus CD40/TNFRSF5 Protein, His Tag, Beijing ACRO Biosystems Co. Ltd., Cat #: CD0-C52H6) (Macaca fascicularis, UniProt G7PG38 21-193)
T1 construct: Bought protein; also called monkey (Macaca fascicularis) CD40; not shown: His tag
Test: SPR, Biacore 8K, Protein A chip, CD40-His as analyte, 1:1 Langmuir fit
reported metric: kon (M⁻¹ s⁻¹)
// units = M⁻¹ s⁻¹; emit number, no label

binder	kon / M⁻¹ s⁻¹
Bleselumab analog (antibody, human IgG4, V domains shown) VH: QLQLQESGPGLLKPSETLSLTCTVSGGSISSPGYYGGWIRQPPGKGLEWIGSIYKSGSTYHNPSLKSRVTISVDTSKNQFSLKLSSVTAADTAVYYCTRPVVRYFGWFDPWGQGTLVTVSS VL: AIQLTQSPSSLSASVGDRVTITCRASQGISSALAWYQQKPGKAPKLLIYDASNLESGVPSRFSGSGSGTDFTLTISSLQPEDFATYYCQQFNSYPTFGQGTKVEIKR	270000
2F8-IgG4-FLAA (antibody, V domains shown, Rest: human IgG4 constant regions with FLAA mutations (F234A and L235A, EU numbering)) VH: EVQLVQSGGGVVQPGRSLRLSCAASGFSFSSYAMHWVRQVPGKGLEWVSVISYDGDNKYHAESVKGRFTISRDNSKNILYLQMNSLRPEDTAVYYCARRGTVTNYYSYSGLDVWGQGTTVTVSS VL: DIQLTQSPLSLPVTPGEPASISCRSSQSLLYSNGKNYLDWYLQKPGQSPQLLIYLASNRASGVPDRFSGSGSGTDFTLKISRVEAEDVGVYFCMQALQTPRTFGQGTKVEIKR	989000
6A4-IgG4-FLAA (antibody, V domains shown, Rest: human IgG4 constant regions with FLAA mutations (F234A and L235A, EU numbering)) VH: QVQLVQSGGGLVQPGGSLRLSCAASGFTFSNYVMSWVRQAPGKGLEWVSTIRGSGISTYYTDSVKGRFTTSRDNPKNTLFLQMSSLRAEDTAVYYCAKGIVGATTPFDYWGQGTLVTVSS VL: EIVLTQSPATLSLSPGERATLSCRASQSVRSFLAWYQQKPGQAPRLLIYETSNRATGIPARFSGSGSGTDFTLTISSLEPEDFAVYYCQQRSDWPPTFGQGTKVEIKR	288000

Consider the record given below.
Value of measured kon for the entry 12B5-IgG4-FLAA (antibody, V domains shown, Rest: human IgG4 constant regions with FLAA mutations (F234A and L235A, EU numbering); copies: 2 + 2) VH: QVQLVQSGPGLVKPSETLSLTCTVSGGSISYYYWSWIRQPPGKGLEWIGHISYSGSTNYNPSLKSRVTISEDTSKKQFSLKLDSVTAADTAVYYCAGGIVGARRGFDFWGQGTLVTVSS VL: EIVMTQSPATLSLSPGERATLSCRASQSVSNNLAWYQQKPGQAPRLLIYDASNRAADIPARFSGSGSGTDFTLTISSLEPEDFAVYYCQQRNNWPPTFGQGTKVEIKR : 535000
